System: UACC-62
experimental.details: NCI tumour cell line growth inhibition, 48 h
Activity calls are given as the source filed them. No stated cut-off is given here; in the data, active = GI50 up to about 1.1 µM and inactive = higher.
Classes used: class 1 (active), class 0 (inactive)

| molecule | answer.label |
| --- | --- |
| COc1cc(C(c2cc3c(cc2O)OCO3)N2CCCCC2)cc(OC)c1OC (centres undefined) | class 0 |
| CCOC(=O)c1c(OCC)[nH]c(=O)c(C(c2ccc(F)cc2)c2c(O)c(C(=O)OCC)c(OCC)[nH]c2=O)c1O | class 0 |
| Cc1c(-c2coc(-c3ccc([N+](=O)[O-])cc3)n2)c(=O)n(-c2ccccc2)n1C | class 0 |
| Nc1ccccc1.O=C(O)C(C(F)(F)F)C(F)(F)F | class 0 |
| Cc1ccc(C)c(N2C(=O)C(=O)c3c(C)ccc(C)c32)c1 | class 0 |
| CCCCCCCCCCCCCCCCCCNc1ccn(C2OC(COP(=O)(O)OC3CC(n4cc(F)c(=O)[nH]c4=O)OC3COP(=O)(O)OCC3OC(n4ccc(N)nc4=O)C(O)C3O)C(O)C2O)c(=O)n1 (centres undefined) | class 1 |
| O=C1C2c3[nH]c4ccccc4c3C3CCCCCCC3C2C(=O)N1c1ccccc1 (centres undefined) | class 0 |
| COc1cc2c(cc1OCCCC(=O)Nc1cc(C(=O)NCCCN(C)C)n(C)n1)N=CC1CCCN1C2=O (centres undefined) | class 0 |
| CN(C)C(=S)/N=c1\ss/c(=N\C(=S)N(C)C)n1Cc1ccco1 | class 0 |
